Biological target: T1, Aβ1-42 fibrils (human)
T1 construct: Aβ1-42 polypeptide, HFIP-treated, incubated in 10 mM HCl at 37 C for 24 h, pelleted fibrillar fraction, sonicated; Multimeric fibril; also called fibril Aβ42; fibrillar Aβ42
T1 sequence (peptide, as listed by the source): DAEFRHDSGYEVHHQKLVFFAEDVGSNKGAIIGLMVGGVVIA
Assay: SPR (BIAcore T200); Aβ1-42 fibrils immobilized, antibody as analyte; global 1:1 fit
Assay metric: koff

[[record]]
binder = "h2726 (antibody, V domains shown, Humanized IgG mAb; Only the variable domains are tied to the construct; also called PB-0573) VH: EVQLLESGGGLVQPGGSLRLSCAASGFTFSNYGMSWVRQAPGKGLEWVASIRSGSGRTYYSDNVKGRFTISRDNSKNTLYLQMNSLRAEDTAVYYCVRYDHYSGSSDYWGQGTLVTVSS VL: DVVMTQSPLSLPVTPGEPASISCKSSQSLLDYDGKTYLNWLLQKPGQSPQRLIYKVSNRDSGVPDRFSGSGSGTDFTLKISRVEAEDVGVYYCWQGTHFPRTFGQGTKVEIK"
reading = "2.12e-05 s⁻¹"

